- Tested on: Escherichia coli
- test_name: Antibacterial activity against Escherichia coli X580 at 2 mg/ml after overnight incubation by hole plate method
- Format: functional
- run_conditions: read-out: DIZ
readout_kind: zone of inhibition at 2000 µg/mL (mm)
Answers are plain numbers, in mm.

Use these answered entries as a reference point.
- structure_string: "Cc1ccc(C(=O)/C=C/c2ccc(-n3nc4c(c3C)N(C)S(=O)(=O)c3ccccc3-4)cc2)cc1"
  test_target: "Escherichia coli"
  unit_info: "mm"
  zone of inhibition at 2000 µg/mL: 13
- structure_string: "COc1ccc(-c2cc(-c3ccc(-n4nc5c(c4C)N(C)S(=O)(=O)c4ccccc4-5)cc3)nc(N)n2)cc1OC"
  test_target: "Escherichia coli"
  unit_info: "mm"
  zone of inhibition at 2000 µg/mL: 14
- structure_string: "COc1ccc(-c2cc(-c3ccc(-n4nc5c(c4C)N(C)S(=O)(=O)c4ccccc4-5)cc3)nc(N)n2)c(OC)c1OC"
  test_target: "Escherichia coli"
  unit_info: "mm"
  zone of inhibition at 2000 µg/mL: 24
- structure_string: "Cc1c2c(nn1-c1ccc(C(=O)/C=C/c3cccc(Br)c3)cc1)-c1ccccc1S(=O)(=O)N2C"
  test_target: "Escherichia coli"
  unit_info: "mm"
  zone of inhibition at 2000 µg/mL: 17
- structure_string: "Cc1c2c(nn1-c1ccc(-c3cc(-c4cccc(Cl)c4)nc(N)n3)cc1)-c1ccccc1S(=O)(=O)N2C"
  test_target: "Escherichia coli"
  unit_info: "mm"
  zone of inhibition at 2000 µg/mL: 16
- structure_string: "Cc1c2c(nn1-c1ccc(/C=C/C(=O)c3ccc(Br)cc3)cc1)-c1ccccc1S(=O)(=O)N2C"
  test_target: "Escherichia coli"
  unit_info: "mm"
  zone of inhibition at 2000 µg/mL: 16

Dear colleague, could you send me zone of inhibition at 2000 µg/mL for each of the items below? Thanks.
1. COc1ccccc1-c1cc(-c2ccc(-n3nc4c(c3C)N(C)S(=O)(=O)c3ccccc3-4)cc2)nc(N)n1
2. COc1ccc(/C=C/C(=O)c2ccc(-n3nc4c(c3C)N(C)S(=O)(=O)c3ccccc3-4)cc2)c(OC)c1OC

Response:
1. 20
2. 14
